biological target: Kappa-type opioid receptor (Homo sapiens, UniProt P41145); test: Binding affinity against human opioid receptor kappa 1 expressed in HEK293 cells using 3H-U69,593 radioligand
Sequence (P41145 whole entry): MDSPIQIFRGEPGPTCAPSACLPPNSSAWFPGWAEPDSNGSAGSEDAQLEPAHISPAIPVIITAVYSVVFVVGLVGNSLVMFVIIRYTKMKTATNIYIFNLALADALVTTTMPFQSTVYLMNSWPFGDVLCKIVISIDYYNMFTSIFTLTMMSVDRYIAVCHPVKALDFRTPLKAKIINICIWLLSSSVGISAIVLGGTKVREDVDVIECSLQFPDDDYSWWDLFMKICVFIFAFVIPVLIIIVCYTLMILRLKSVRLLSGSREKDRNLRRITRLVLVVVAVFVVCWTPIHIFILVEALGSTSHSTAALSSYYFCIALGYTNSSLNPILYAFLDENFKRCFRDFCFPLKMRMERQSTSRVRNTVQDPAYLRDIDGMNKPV
measured_metric: IC50

Field IC50 (entry "COc1ccc2c(c1)N(CC1CC1)C(=O)C21CCN(CC2CCCCCCC2)CC1" ) reads > 10 µM

---

target: Nociceptin receptor (Homo sapiens, UniProt P41146); assay: Ability to inhibit calcium flux in HEK293 cells overexpresses human opiate receptor-like 1 in the presence of 100 nM nociceptin; assay type: cell-based
Sequence (P41146 whole entry): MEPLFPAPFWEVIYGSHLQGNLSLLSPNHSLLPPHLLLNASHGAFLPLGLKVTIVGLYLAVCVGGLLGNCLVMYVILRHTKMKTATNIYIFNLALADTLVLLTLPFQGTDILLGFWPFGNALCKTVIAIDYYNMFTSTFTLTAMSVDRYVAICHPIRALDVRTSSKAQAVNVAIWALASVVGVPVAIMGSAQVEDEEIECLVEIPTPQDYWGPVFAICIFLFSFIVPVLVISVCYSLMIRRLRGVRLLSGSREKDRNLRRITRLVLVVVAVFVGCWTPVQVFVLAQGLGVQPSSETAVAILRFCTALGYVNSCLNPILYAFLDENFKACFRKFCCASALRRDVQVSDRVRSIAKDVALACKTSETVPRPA
Catalogue of inhibition readings, one per entry.
Reply with just the number (in %).

Here are 3 compounds together with their reported answers.
| compound_smiles | target_under_test | inhibition / % |
| --- | --- | --- |
| Cc1ccc2c(c1)N(C)C(=O)C21CCN(CC2CCCCCCC2)CC1 | Nociceptin receptor (Homo sapiens, UniProt P41146) | 48 |
| CN1C(=O)C2(CCN(CC3CCCCCCC3)CC2)c2cc(F)ccc21 | Nociceptin receptor (Homo sapiens, UniProt P41146) | 66 |
| Cc1cccc2c1C1(CCN(CC3CCCCCCC3)CC1)C(=O)N2C | Nociceptin receptor (Homo sapiens, UniProt P41146) | 81 |

Continue with the compound presented below.
Field inhibition (entry "O=C1Nc2ccccc2C12CCN(CC1CCCCCCC1)CC2" ) reads 45

Origin of the recorded values: ChEMBL document CHEMBL1143642
